Documented remaining activity at 1 µM across a set of compounds
- measured-target: panel of 442 kinases (Homo sapiens, UniProt P10721, D816V)
- Construct: purchased Ambit Biosciences (scanMAXX KINOMEscan)
- Sequence (P10721 26-976 D816V): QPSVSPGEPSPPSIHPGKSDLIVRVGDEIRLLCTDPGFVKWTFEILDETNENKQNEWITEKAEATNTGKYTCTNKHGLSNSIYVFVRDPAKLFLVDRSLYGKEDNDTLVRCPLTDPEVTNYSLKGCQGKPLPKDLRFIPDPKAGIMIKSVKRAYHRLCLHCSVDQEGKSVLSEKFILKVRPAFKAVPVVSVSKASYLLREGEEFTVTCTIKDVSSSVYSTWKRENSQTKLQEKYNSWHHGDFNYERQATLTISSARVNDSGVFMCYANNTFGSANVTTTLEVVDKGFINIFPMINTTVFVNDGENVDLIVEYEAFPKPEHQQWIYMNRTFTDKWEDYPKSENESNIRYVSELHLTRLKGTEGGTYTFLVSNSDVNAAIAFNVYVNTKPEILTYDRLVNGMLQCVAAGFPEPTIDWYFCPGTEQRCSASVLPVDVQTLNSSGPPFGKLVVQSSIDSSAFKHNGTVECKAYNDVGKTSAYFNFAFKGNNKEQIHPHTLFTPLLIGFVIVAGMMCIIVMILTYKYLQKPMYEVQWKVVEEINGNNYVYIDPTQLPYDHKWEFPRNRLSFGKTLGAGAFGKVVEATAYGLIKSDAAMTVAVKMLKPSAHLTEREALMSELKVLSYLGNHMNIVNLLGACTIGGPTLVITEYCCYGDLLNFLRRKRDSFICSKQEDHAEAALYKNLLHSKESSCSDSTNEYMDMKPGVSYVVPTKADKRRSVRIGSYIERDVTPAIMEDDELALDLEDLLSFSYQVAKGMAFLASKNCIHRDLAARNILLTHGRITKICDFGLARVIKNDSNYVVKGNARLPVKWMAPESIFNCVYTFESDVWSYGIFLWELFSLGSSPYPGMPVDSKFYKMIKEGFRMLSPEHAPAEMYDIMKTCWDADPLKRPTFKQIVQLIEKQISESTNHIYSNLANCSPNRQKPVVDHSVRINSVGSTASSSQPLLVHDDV
- assay-info: biochemical
- Type: binding
- cond: kinase KIT(D816V), second of two lines so named (r207); 1 µM; read-out: % of control at 1 µM
endpoint: remaining activity at 1 µM

• Nc1cc(C(F)(F)F)c(-c2cc(N3CCOCC3)nc(N3CCOCC3)n2)cn1 [Buparlisib] = 100%
• COc1ncc(-c2ccc3nccc(-c4ccnnc4)c3c2)cc1NS(=O)(=O)c1ccc(F)cc1F [Omipalisib] = 86%
• Cn1c(=O)n(-c2ccc(C(C)(C)C#N)cc2)c2c3cc(-c4cnc5ccccc5c4)ccc3ncc21 [Dactolisib] = 59%
• FC(F)c1nc2ccccc2n1-c1nc(N2CCOCC2)nc(N2CCOCC2)n1 [ZSTK474] = 100%

----------
- measured-target: panel of 442 kinases (Homo sapiens)
- Construct: purchased Ambit Biosciences (scanMAXX KINOMEscan)
- assay-info: biochemical
- Assay type: binding
- cond: kinase MEK4; 1 µM; read-out: % of control at 1 µM
endpoint: remaining activity at 1 µM (%)

• COc1ncc(-c2ccc3nccc(-c4ccnnc4)c3c2)cc1NS(=O)(=O)c1ccc(F)cc1F = 48
• Cn1c(=O)n(-c2ccc(C(C)(C)C#N)cc2)c2c3cc(-c4cnc5ccccc5c4)ccc3ncc21 = 83
• FC(F)c1nc2ccccc2n1-c1nc(N2CCOCC2)nc(N2CCOCC2)n1 = 63
• Nc1cc(C(F)(F)F)c(-c2cc(N3CCOCC3)nc(N3CCOCC3)n2)cn1 = 100

----------
- measured-target: panel of 442 kinases (Homo sapiens, UniProt Q16288)
- Construct: purchased Ambit Biosciences (scanMAXX KINOMEscan)
- Sequence (Q16288 32-839): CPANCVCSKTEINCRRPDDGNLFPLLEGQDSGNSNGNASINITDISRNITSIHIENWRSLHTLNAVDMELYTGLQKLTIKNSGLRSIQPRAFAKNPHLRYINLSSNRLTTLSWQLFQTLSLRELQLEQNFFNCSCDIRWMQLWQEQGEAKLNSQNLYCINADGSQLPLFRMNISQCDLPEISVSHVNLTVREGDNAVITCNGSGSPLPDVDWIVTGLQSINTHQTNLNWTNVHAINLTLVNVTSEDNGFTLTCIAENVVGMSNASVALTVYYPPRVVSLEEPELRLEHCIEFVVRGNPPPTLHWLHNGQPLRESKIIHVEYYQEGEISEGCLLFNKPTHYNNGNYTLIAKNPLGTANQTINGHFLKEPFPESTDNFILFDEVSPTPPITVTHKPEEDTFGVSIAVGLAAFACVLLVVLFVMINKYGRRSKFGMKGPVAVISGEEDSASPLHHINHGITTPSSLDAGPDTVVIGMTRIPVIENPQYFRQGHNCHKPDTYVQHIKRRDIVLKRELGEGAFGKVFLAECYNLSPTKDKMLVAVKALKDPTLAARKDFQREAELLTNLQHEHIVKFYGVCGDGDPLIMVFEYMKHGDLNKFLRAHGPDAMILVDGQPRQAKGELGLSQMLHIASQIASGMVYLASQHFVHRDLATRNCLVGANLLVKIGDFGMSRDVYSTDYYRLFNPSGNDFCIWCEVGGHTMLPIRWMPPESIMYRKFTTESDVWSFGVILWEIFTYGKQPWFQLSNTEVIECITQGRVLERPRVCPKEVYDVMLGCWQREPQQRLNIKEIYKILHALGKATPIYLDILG
- assay-info: biochemical
- Type: binding
- cond: kinase TRKC; 1 µM; read-out: TRKC (% of control at 1 µM)
endpoint: remaining activity at 1 µM

• Cn1c(=O)n(-c2ccc(C(C)(C)C#N)cc2)c2c3cc(-c4cnc5ccccc5c4)ccc3ncc21 = 85%
• Nc1cc(C(F)(F)F)c(-c2cc(N3CCOCC3)nc(N3CCOCC3)n2)cn1 = 76%
• FC(F)c1nc2ccccc2n1-c1nc(N2CCOCC2)nc(N2CCOCC2)n1 = 100%
• COc1ncc(-c2ccc3nccc(-c4ccnnc4)c3c2)cc1NS(=O)(=O)c1ccc(F)cc1F = 100%

----------
- measured-target: panel of 442 kinases (Homo sapiens, UniProt Q9UEW8)
- Construct: purchased Ambit Biosciences (scanMAXX KINOMEscan)
- assay-info: biochemical
- Assay type: binding
- cond: kinase STK39; 1 µM; read-out: STK39 (% of control at 1 µM)
endpoint: remaining activity at 1 µM (%)

- COc1ncc(-c2ccc3nccc(-c4ccnnc4)c3c2)cc1NS(=O)(=O)c1ccc(F)cc1F: 76
- Nc1cc(C(F)(F)F)c(-c2cc(N3CCOCC3)nc(N3CCOCC3)n2)cn1: 93
- Cn1c(=O)n(-c2ccc(C(C)(C)C#N)cc2)c2c3cc(-c4cnc5ccccc5c4)ccc3ncc21: 100
- FC(F)c1nc2ccccc2n1-c1nc(N2CCOCC2)nc(N2CCOCC2)n1: 95

----------
- measured-target: panel of 442 kinases (Homo sapiens)
- Construct: purchased Ambit Biosciences (scanMAXX KINOMEscan)
- Sequence (Q6XUX3 1-929): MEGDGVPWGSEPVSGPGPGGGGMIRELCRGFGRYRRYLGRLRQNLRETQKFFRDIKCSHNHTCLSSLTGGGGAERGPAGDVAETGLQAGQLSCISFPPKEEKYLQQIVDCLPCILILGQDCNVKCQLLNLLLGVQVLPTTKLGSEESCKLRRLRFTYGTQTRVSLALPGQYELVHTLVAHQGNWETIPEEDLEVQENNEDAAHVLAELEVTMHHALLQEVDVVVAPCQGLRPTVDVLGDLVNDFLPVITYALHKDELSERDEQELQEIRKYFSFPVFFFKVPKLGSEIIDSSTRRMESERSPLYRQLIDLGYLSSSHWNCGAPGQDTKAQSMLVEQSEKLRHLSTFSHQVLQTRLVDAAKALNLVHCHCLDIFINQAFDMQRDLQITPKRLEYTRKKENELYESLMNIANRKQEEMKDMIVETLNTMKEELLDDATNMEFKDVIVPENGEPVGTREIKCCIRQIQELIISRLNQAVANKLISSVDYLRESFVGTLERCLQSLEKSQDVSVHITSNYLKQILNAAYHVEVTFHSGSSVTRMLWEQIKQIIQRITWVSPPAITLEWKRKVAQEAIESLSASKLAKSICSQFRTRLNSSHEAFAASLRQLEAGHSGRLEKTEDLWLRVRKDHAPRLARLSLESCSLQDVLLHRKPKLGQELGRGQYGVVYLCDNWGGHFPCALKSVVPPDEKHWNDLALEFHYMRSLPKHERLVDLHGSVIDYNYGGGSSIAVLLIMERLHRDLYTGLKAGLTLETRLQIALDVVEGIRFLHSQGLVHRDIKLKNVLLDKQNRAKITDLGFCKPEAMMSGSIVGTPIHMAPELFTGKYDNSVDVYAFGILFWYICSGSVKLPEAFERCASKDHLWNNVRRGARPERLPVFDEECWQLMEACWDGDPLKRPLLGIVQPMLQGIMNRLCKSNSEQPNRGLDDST
- assay-info: biochemical
- Assay type: binding
- cond: kinase RIPK5; 1 µM; read-out: RIPK5 (% of control at 1 µM)
endpoint: remaining activity at 1 µM (%)

- Nc1cc(C(F)(F)F)c(-c2cc(N3CCOCC3)nc(N3CCOCC3)n2)cn1: 100
- Cn1c(=O)n(-c2ccc(C(C)(C)C#N)cc2)c2c3cc(-c4cnc5ccccc5c4)ccc3ncc21: 80
- FC(F)c1nc2ccccc2n1-c1nc(N2CCOCC2)nc(N2CCOCC2)n1: 92
- COc1ncc(-c2ccc3nccc(-c4ccnnc4)c3c2)cc1NS(=O)(=O)c1ccc(F)cc1F: 100

Values from paper PMC5564600
